subject-of-test: UniProt:P17752
Sequence (P17752 whole entry): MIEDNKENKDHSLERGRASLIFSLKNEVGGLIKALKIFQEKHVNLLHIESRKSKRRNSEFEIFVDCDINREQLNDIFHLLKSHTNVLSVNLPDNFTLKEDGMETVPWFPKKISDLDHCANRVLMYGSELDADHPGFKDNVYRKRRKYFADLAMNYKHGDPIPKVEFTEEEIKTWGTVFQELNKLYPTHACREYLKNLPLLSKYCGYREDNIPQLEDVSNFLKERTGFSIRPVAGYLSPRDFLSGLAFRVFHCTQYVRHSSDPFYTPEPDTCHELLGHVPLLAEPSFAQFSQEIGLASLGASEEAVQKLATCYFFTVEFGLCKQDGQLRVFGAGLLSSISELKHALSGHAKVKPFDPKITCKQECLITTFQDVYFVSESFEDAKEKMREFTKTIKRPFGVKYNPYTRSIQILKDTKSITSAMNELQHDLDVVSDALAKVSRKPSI
assay-overview: Biochemical in vitro assay using fluorescence readout (TPH1 inhibition)
condition-parameters: human TPH1, fluorescence readout
measure: IC50 (nM)
Field format: number, assumed nM, no unit text.

Enquiry: What value of IC50 has been recorded for this entry: Cc1nn2c3c(nc2s1)CCN(C(=O)COc1ccc(C(=O)N(C)C)nc1Cl)C3c1ccc(C(F)(F)F)cc1F (stereo not drawn) [Example 1.56.1]
Return: 15

Enquiry: Then this molecule: Cc1cnc(C2c3c(nc4sc(C)nn34)CCN2C(=O)COc2ccc(NS(C)(=O)=O)cc2Cl)c(F)c1 (stereo not drawn) [Example 1.31.10]
Return: 11

Enquiry: Then this molecule: CCc1ncccc1OCC(=O)N1CCc2nc3sccn3c2C1c1ccc(C(F)F)cc1F (stereo not drawn) [Example 6.16.1]
Return: 14
